molecular target: human cathepsin K (UniProt P43236); assay: Cathepsin K Assay (hrbCat K); assay type: biochemical; conditions: Z-Leu-Arg-AMC substrate, pH 5.5, 15 min preincubation; read-out: hrbCat K (IP (nM))
Measured IC50 of individual entries
Provide only the numeric value, understood in nM.

Example molecules with recorded IC50:
>  <MOLECULE>
N#CC1(NC(=O)[C@@H]2CCCC[C@H]2c2nc(-c3ccc(F)c(F)c3)sc2-c2ccc(N3CCS(=O)(=O)CC3)cc2)CC1 [Example 58]

>  <IC50 (nM)>
1.7

$$$$
>  <MOLECULE>
N#CC(CC(F)(F)F)NC(=O)[C@@H]1CCCC[C@H]1c1nc(-c2ccc(F)cn2)sc1-c1ccc(N2CCS(=O)(=O)CC2)cc1 (single isomer, unassigned) [Example 193]

>  <IC50 (nM)>
0.6

$$$$
>  <MOLECULE>
Cc1ccc(-c2nc([C@@H]3CC[C@H](F)C[C@H]3C(=O)NC3(C#N)CC3)c(-c3ccc(N4CCOCC4)cc3)s2)nn1 [Example 216]

>  <IC50 (nM)>
7.1

$$$$

Request: Query IC50 on human cathepsin K (UniProt P43236) for N#CC1(NC(=O)[C@@H]2CCCC[C@H]2c2nc(-c3ccc(F)cc3)oc2-c2ccc(N3CCS(=O)(=O)CC3)cc2)CC1 [Example 10]
Response: 2.5

Request: Query IC50 on human cathepsin K (UniProt P43236) for N#CC1(NC(=O)[C@@H]2CCC(Cl)(Cl)C[C@H]2c2nc(-c3ccc(F)cn3)sc2-c2ccc(N3CCS(=O)(=O)CC3)cc2)CC1 [Example 204]
Response: 88.2

Request: Query IC50 on human cathepsin K (UniProt P43236) for CC1CC1(C#N)NC(=O)[C@@H]1CCCC[C@H]1c1nc(-c2ccc(F)cn2)sc1-c1ccc(N2CCS(=O)(=O)CC2)cc1 (single isomer, unassigned) [Example 203]
Response: 161

====

Biological target: human cathepsin K (UniProt P43236)
Test: Cathepsin K Assay (hrbCat K)
Type: biochemical
Conditions: Z-Leu-Arg-AMC substrate, pH 5.5, 15 min preincubation; read-out: hrbCat K (IP (nM))
Experimental: Cathepsin K Assay (hrbCat K) Then 0.5 μL of DMSO from each dilution were added to 18.75 μL of assay buffer (MES, 50 mM (pH 5.5); EDTA, 2.5 mM; DTT, 2.5 mM and 10% DMSO) containing human cathepsin K (0.4 nM) in assay buffer solution. The assay solutions were mixed for 5-10 seconds on a shaker plate and incubated for 15 minutes at room temperature. […] Percent of inhibition were calculated by fitting experimental values to standard mathematical model for dose response curve.
Measured log10(IC50) of individual entries
Annotation: log10 of IC50, nM basis.

Example compounds with recorded log10(IC50):
>  <STRUCTURE_NOTATION>
N#CC1(NC(=O)[C@@H]2CCCC[C@H]2c2nc(-c3ccc(F)cn3)sc2-c2ccc(N3CCS(=O)(=O)CC3)cc2)CC1

>  <log10(IC50)>
0.11

$$$$
>  <STRUCTURE_NOTATION>
N#CC1(NC(=O)[C@@H]2CCCC[C@H]2c2nc(-c3cncc(C(F)(F)F)c3)sc2-c2ccc(N3CCS(=O)(=O)CC3)cc2)CC1

>  <log10(IC50)>
0.18

$$$$
>  <STRUCTURE_NOTATION>
N#CC1(NC(=O)[C@@H]2CCCC[C@H]2c2nc(-c3ccc(F)cc3)sc2-c2ccc(C(=O)N3CCNC(=O)C3)cc2)CC1

>  <log10(IC50)>
1.81

$$$$
>  <STRUCTURE_NOTATION>
C[C@@H](C#N)NC(=O)[C@@H]1C[C@@H](F)CC[C@H]1c1nc(C(C)(C)C)oc1-c1ccc(N2CCS(=N)(=O)CC2)cc1

>  <log10(IC50)>
0.68

$$$$

Request: Which value of log10(IC50) has been reported for COc1cnc(-c2nc([C@@H]3CCCC[C@H]3C(=O)NC3(C#N)CC3)c(-c3ccc(N4CCS(=O)(=O)CC4)cc3)s2)nc1 in the records?
Response: 1.68

Request: Which value of log10(IC50) has been reported for N#CC1(NC(=O)[C@@H]2CCCC[C@H]2c2nc(N3CCO[C@H](C(F)(F)F)C3)sc2-c2ccc(N3CCS(=O)(=O)CC3)cc2)CC1 in the records?
Response: 0.63
